Where do the numbers come from? From patent US20220348590A1.

assayed_target: human recombinant COX2 (hCOX2) (UniProt P35354)
Sequence (P35354 1-604): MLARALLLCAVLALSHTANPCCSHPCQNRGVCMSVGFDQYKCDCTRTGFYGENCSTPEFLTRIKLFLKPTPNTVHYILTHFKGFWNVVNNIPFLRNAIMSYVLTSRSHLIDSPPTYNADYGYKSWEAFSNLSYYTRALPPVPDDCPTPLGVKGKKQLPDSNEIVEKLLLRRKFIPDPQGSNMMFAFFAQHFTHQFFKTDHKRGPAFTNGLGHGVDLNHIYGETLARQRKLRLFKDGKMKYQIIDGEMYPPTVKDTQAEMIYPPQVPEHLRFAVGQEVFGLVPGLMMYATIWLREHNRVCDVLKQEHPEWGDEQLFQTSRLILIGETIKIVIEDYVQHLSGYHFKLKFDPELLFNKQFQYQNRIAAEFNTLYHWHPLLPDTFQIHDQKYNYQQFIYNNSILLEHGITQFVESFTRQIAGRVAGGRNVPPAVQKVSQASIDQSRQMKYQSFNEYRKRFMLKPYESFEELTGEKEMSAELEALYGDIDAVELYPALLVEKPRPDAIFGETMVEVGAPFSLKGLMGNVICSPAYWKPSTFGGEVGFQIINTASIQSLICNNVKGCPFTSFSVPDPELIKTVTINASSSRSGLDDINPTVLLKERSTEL
experiment: LCMS-based COX2 enzymatic inhibition assay (PGE2 quantification)
Format: biochemical
Design: COX2 2 minutes pge2/pge2d4 area ratio Avg; other: 2 minutes; readout pge2/pge2d4 area ratio; average; COX2 2 minutes pge2/pge2d4 area ratio Avg; LLE; average LLE; COX2 2 minutes pge2 area (counts) Avg; readout pge2 area (counts); other: 2 min; "ovine COX2 (oCOX2), human recombinant COX2 (hCOX2)"
settings: 2 minutes; readout pge2/pge2d4 area ratio; average; read-out: COX2 2 minutes pge2/pge2d4 area ratio Avg. IC50
pIC50: −log10 of the molar value.
measure: pIC50

compound | assayed_target | pIC50
CS(=O)(=O)c1ccc(-c2cncc(OC[C@H]3CCCO3)n2)cc1 [Compound 252] | human recombinant COX2 (hCOX2) (UniProt P35354) | 5.43

I. COc1ncc(NCc2ccns2)nc1-c1ccc(S(C)(=O)=O)cc1 [Compound 102]
II. COc1ncc(NCc2cccs2)cc1-c1ccc(S(C)(=O)=O)cc1 [Compound 196]
III. CS(=O)(=O)c1ccc(-c2cccc(NCc3cocn3)n2)cc1 [Compound 254]
IV. CC(C)CNc1cncc(-c2ccc(S(C)(=O)=O)cc2)n1 [Compound 178]
## Input Rank order required: pIC50, descending. Show the ranking through the labels, in the order asked for.
## Output I, IV, II, III

* * *

experiment: Mouse Plasma Protein Stability (% Remaining)
Type: in vitro ADME
settings: average
measure: Mouse Plasma Protein Stability % Remaining Avg (%)

compound | unit_text | recorded_result
CS(=O)(=O)c1ccc(-c2cccc(NCc3ccco3)n2)cc1 [Compound 36] | % | 106
CS(=O)(=O)c1ccc(-c2cccc(NCc3ccoc3)n2)cc1 [Compound 47] | % | 107.5
CS(=O)(=O)c1ccc(-c2nc(NCc3cccs3)cc3ccoc23)cc1 [Compound 2] | % | 108
CS(=O)(=O)c1ccc(-c2cccc(OCc3cccs3)n2)cc1 [Compound 1] | % | 119.5
COc1ncc(NCc2ccco2)nc1-c1ccc(S(C)(=O)=O)cc1 [Compound 43] | % | 102.6
COc1ncc(OCc2cccs2)nc1-c1ccc(S(C)(=O)=O)cc1 [Compound 8] | % | 92.8
CS(=O)(=O)c1ccc(-c2cncc(SCc3cccs3)n2)cc1 [Compound 18] | % | 103.7
COc1cc(NCc2cccs2)cc(-c2ccc(S(C)(=O)=O)cc2)n1 [Compound 32] | % | 100.9
COc1cc(NCc2cccs2)nc(-c2ccc(S(C)(=O)=O)cc2)c1 [Compound 50] | % | 98.9
CS(=O)(=O)c1ccc(-c2cc(F)cc(NCc3ccco3)n2)cc1 [Compound 14] | % | 99
CS(=O)(=O)c1ccc(-c2cccc(NCc3cccs3)n2)cc1 [Compound 24] | % | 114.1
CS(=O)(=O)c1ccc(-c2cncc(OCc3cccs3)n2)cc1 [Compound 19] | % | 92.8
CS(=O)(=O)c1ccc(-c2ccc3ccn(Cc4ccoc4)c3n2)cc1 [Compound 26] | % | 97.5
COc1ccc(NCc2cccs2)nc1-c1ccc(S(C)(=O)=O)cc1 [Compound 17] | % | 102
CS(=O)(=O)c1ccc(-c2cccc(/C=C\c3ccoc3)n2)cc1 [Compound 35] | % | 99.2
COc1ncc(NCc2cccs2)nc1-c1ccc(S(C)(=O)=O)cc1 [Compound 29] | % | 93.2
CCOc1ncc(NCc2cccs2)nc1-c1ccc(S(C)(=O)=O)cc1 [Compound 25] | % | 93.1
NS(=O)(=O)c1ccc(-c2cncc(OCc3cccs3)n2)cc1 [Compound 3] | % | 94.9
CS(=O)(=O)c1ccc(-c2cccc(OCc3ccoc3)n2)cc1 [Compound 16] | % | 102
